assay: yeast display, Sf9 membrane polyspecificity reagent, FACS + sequencing; frameworks hold sequencing errors

Sequence record	polyreactivity (PSR sort gate)
QVQLVESGGGLVQAGGSLRLSCAASGFTLGGYAMGWYRQAPGKEREFVAAISGRGGRTYYADSVKGRFTISRDNAKNTVYLQMNSLKPEDTAVYYCAAPTNHWTRLSGDYWGQGTQVTVSS	high polyreactivity
QVQLVESGGGLVQAGGSLRLSCAASGSIFSSNAMGWYRQAPGKERELVAAISRRGGSTYYADSVKGRFTISRDNAKNTVYLQMNSLKPEDTAVYYCNAYPWLLSTRYDYWGQGTQVTVSS	high polyreactivity

====

assay: yeast display, Sf9 membrane polyspecificity reagent, FACS + sequencing; frameworks hold sequencing errors

Sequence record	polyreactivity (PSR sort gate)
QVQLVESGGGLVQAGGSLRLSCAASGSTFFVANAMGWYRQSPGKERELVAAISPSGGSTYYADSVKGRFTISRDNAKNTVYLQMNSLKPEDTAVYYCATSVRRFTRRYDYWGQGTQVTVSS	high polyreactivity
QVQLVQSGGGLVQAGGSLRLSCAASGSTFSGYTMGWYRQAPGKEREFVAAISSRGGSTYYADSVKGRFTISRDNAKNTVYLQMNSLKPEDTAVYYCAAKVWARVDGRQFRMEYWGQGTQVTVSS	high polyreactivity

// provenance: the nanobody polyreactivity screen of Harvey et al. (2022)
